Give measured IC50 for each item. Keep answers brief.
# SYSTEM_TESTED: Protein kinase C (PKC)
# RUN_DESCRIPTION: Inhibition of PKC
# Set-up: species or system Homo sapiens
Give bare numbers, in µM.

{"columns": ["QUERY_SMILES", "SYSTEM_TESTED", "ENDPOINT_UNIT", "IC50"],
 "data": [
  ["C=CCN1C(=O)NC(=O)/C(=C/c2ccc(-c3cc([N+](=O)[O-])ccc3Cl)o2)C1=O", "Protein kinase C (PKC)", "µM", 205.16]
]}

Switching to the query record.
Req: Entry O=C1c2ccccc2C(=O)c2cc(S(=O)(=O)Nc3cccc([N+](=O)[O-])c3)ccc21 : reported IC50 = ?
Resp: 165
